# target_or_test_system: recombinant human mPGES-1 (Homo sapiens, UniProt O14684)
# Construct: made in house; host or cells: Rosetta E. coli (microsomal/membrane fraction)
# Sequence (O14684 whole entry): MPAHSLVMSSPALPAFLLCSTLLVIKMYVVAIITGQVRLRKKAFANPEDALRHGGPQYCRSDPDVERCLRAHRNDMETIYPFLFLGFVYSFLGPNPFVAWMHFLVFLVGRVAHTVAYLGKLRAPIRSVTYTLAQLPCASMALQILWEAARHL
# test_protocol: mPGES-1 inhibition, HTRF detection of PGE2
# Assay type: biochemical
Below, each entry is listed alongside its reported inhibition at 10 µM.

Which measured inhibition at 10 µM value corresponds to Cc1ccnc(Br)c1Nc1nc2cc(C(=O)N[C@H]3CC[C@H](C(F)(F)F)CC3)c(OCC(F)F)nc2n1C [Example 786] ?
92%

Subsequent entry: COc1nc2c(cc1C(=O)Nc1ccc(Br)cc1)nc(Nc1c(Cl)cccc1Cl)n2C [Example 377]
100%

Subsequent entry: O=C(N[C@H]1CC[C@H](C(F)(F)F)CC1)c1cc2nc(Nc3c(Cl)cc(F)cc3Cl)[nH]c2nc1OCC(F)F [Example 823]
91%

----------
# target_or_test_system: recombinant human mPGES-1 (Homo sapiens)
# Construct: made in house; host or cells: Rosetta E. coli (microsomal/membrane fraction)
# test_protocol: mPGES-1 inhibition, HTRF detection of PGE2
# Assay type: biochemical
Below, each entry is listed alongside its reported inhibition at 10 µM.
State the answer as a number, implicitly in %.

Before answering, review these 4 worked examples.
>>> reported_value("COCCOc1nc2[nH]c(Nc3c(Cl)cncc3Cl)nc2cc1C(=O)NCC(F)(F)C(F)(F)C(F)(F)C(F)(F)F")
96
>>> reported_value("Cn1c(Nc2c(Cl)ccc(Cl)c2F)nc2cc(C(=O)N[C@H]3CC[C@H](C(F)(F)F)CC3)c(OCC(F)F)nc21")
98
>>> reported_value("Cn1c(Nc2c(Cl)cccc2Cl)nc2cc(C(=O)NCc3ccccc3C(F)(F)F)cnc21")
98
>>> reported_value("CCC1CCC(NC(=O)c2cnc3c(c2)nc(Nc2c(Cl)cccc2Cl)n3C)CC1 (centres unmarked)")
100

Which measured inhibition at 10 µM value corresponds to Cn1c(Nc2c(Cl)cc(F)cc2Cl)nc2cc(C(=O)Nc3cc(C(F)(F)F)ccn3)c(OCC(F)(F)F)nc21 ?
100
